This listing pairs compounds with measured pIC50.
system_under_test: NRAS WT (Homo sapiens (Human), UniProt P01111+P62937)
Sequence (P01111 whole entry): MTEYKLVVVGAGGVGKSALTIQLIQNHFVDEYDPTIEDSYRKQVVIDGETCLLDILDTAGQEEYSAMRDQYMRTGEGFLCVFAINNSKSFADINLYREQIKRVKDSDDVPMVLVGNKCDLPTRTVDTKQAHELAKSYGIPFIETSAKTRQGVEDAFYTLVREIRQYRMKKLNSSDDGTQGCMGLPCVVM
Sequence (P62937 whole entry): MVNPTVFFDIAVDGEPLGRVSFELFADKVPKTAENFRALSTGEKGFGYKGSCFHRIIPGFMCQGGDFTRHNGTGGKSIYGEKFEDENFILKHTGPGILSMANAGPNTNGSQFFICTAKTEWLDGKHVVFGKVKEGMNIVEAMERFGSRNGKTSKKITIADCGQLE
experiment_notes: Ras-Raf (BRAF RBD) disruption / FRET / MOA assay, NRAS WT
Format: biochemical
test_conditions: read-out: IC50* NRAS WT FRET data
pIC50: −log10 of the molar value.

Record excerpt, results attached:
>  <compound>
C=CC(=O)N1CCC(C(=O)N(C)[C@H](C(=O)N[C@H]2Cc3cc(CF)cc(c3)-c3ccc4c(c3)c(c(-c3cccnc3[C@H](C)OC)n4CC(F)(F)F)CC(C)(C)COC(=O)[C@@H]3CCCN(N3)C2=O)C(C)C)C1 (stereo partly shown)

>  <measured_metric>
pIC50

>  <result>
6.00 to 7.00

$$$$
>  <compound>
C=CC(=O)N1CC[C@H](N(C)C(=O)N(C)[C@H](C(=O)N[C@H]2Cc3nc(cs3)-c3ccc4c(c3)c(c(-c3cccnc3[C@H](C)OC)n4CC)CC(C)(C)COC(=O)[C@@H]3CCCN(N3)C2=O)C(C)C)C1 (atropisomer, axis not shown)

>  <measured_metric>
pIC50

>  <result>
6.00 to 7.00

$$$$
>  <compound>
C=CC(=O)N1CC[C@H](C(=O)N(C)[C@H](C(=O)N[C@H]2Cc3cc(O)cc(c3)-c3ccc4c(c3)c(c(-c3cccc(=O)n3C(C)C)n4CC)CC(C)(C)COC(=O)[C@@H]3CCCN(N3)C2=O)C(C)C)C1

>  <measured_metric>
pIC50

>  <result>
5.00 to 6.00

$$$$

Please examine the following record next.
pIC50 on NRAS WT (Homo sapiens (Human), UniProt P01111+P62937) for CCn1c(-c2cccnc2[C@H](C)OC)c2c3cc(ccc31)N1CCO[C@@H](C[C@H](NC(=O)[C@H](C(C)C)N(C)C(=O)C3(F)CCN(C(=O)/C=C/CN(C)C)CC3)C(=O)N3CCC[C@H](N3)C(=O)OCC(C)(C)C2)C1 (atropisomer, axis not shown) is 5.00 to 6.00
